The following molecules are listed with their measured Emax values.
Target: hMCR-1 (Homo sapiens)
Construct: endogenous in cells; host or cells: HBL human melanoma cell line
Assay: Assay for agonist activity: cAMP accumulation in HBL human melanoma cells
Assay type: cell-based
Conditions: compared to reference agonist NDP-α-MSH, read-out: MC-1 Emax (average; cAMP HBL)
Where a SMILES comes first, the peptide text is derived from it. [ ]: non-standard residue; d: D form. Nle = CCCC[C@H](N)C(=O)O; Dab = NCC[C@H](N)C(=O)O
Quick note: give the figure in %, leave out the unit.

Answered cases to consult:
CCCC[C@H](NC(C)=O)C(=O)N[C@H](Cc1ccccc1)C(=O)N[C@@H](CCCNC(=N)N)C(=O)N[C@@H](C)C(=O)N[C@@H](Cc1c[nH]c2ccccc12)C(N)=O [Example 9.15, Ac-Nle-D-Phe-Arg-Ala-Trp-NH2] (Ac-[Nle][dF]RAW-NH2) = 67
CCCC[C@H](NC(C)=O)C(=O)N[C@@H](C)C(=O)N[C@@H](Cc1ccccc1)C(=O)N[C@H](Cc1ccccc1)C(=O)N[C@@H](CCCNC(=N)N)C(=O)N[C@@H](C)C(=O)N[C@@H](Cc1c[nH]c2ccccc12)C(N)=O [Example 9.19, Ac-Nle-Ala-Phe-D-Phe-Arg-Ala-Trp-NH2] (Ac-[Nle]AF[dF]RAW-NH2) = 99

Now look at this one.
Q: Looking for the measured Emax of CCCC[C@H](NC(C)=O)C(=O)N[C@@H](C)C(=O)N[C@@H](CCN)C(=O)N[C@H](Cc1ccccc1)C(=O)N[C@@H](CCCNC(=N)N)C(=O)N[C@@H](C)C(=O)N[C@@H](Cc1c[nH]c2ccccc12)C(N)=O [Example 9.22, Ac-Nle-Ala-Dab-D-Phe-Arg-Ala-Trp-NH2] (Ac-[Nle]A[Dab][dF]RAW-NH2) , can you help?
Result: 101

---

The following molecules are listed with their measured pEC50 values.
Biological target: hMCR-1 (Homo sapiens)
Construct: endogenous in cells
Experiment: Assay for agonist activity: cAMP accumulation in HBL human melanoma cells
Conditions: read-out: MC-1 EC50 (average; cAMP HBL)
Where a SMILES comes first, the peptide text is derived from it. [ ]: non-standard residue; d: D form. Nle = CCCC[C@H](N)C(=O)O; Sar = CNCC(=O)O
Please express pEC50 as -log10 of the molar concentration.

Answered cases to consult:
CCCC[C@H](NC(C)=O)C(=O)N[C@@H](C)C(=O)N[C@@H](Cc1c[nH]cn1)C(=O)N[C@H](Cc1ccccc1)C(=O)N[C@@H](CCCNC(=N)N)C(=O)N(C)CC(=O)N[C@@H](Cc1c[nH]c2ccccc12)C(N)=O [Example 9.4, Ac-Nle-Ala-His-D-Phe-Arg-Sar-Trp-NH2] (Ac-[Nle]AH[dF]R[Sar]W-NH2) = 9.77
CCCC[C@H](NC(C)=O)C(=O)N[C@@H](C)C(=O)N[C@@H](Cc1c[nH]cn1)C(=O)N[C@@H](Cc1ccccc1)C(=O)N[C@@H](CCCNC(=N)N)C(=O)N[C@@H](C)C(=O)N[C@@H](Cc1c[nH]c2ccccc12)C(N)=O [Example 9.6, Ac-Nle-Ala-His-Phe-Arg-Ala-Trp-NH2] (Ac-[Nle]AHFRAW-NH2) = 8.40

Now look at this one.
Q: Looking for the measured pEC50 of CCCC[C@H](NC(C)=O)C(=O)N[C@@H](C)C(=O)N[C@@H](Cc1c[nH]cn1)C(=O)N[C@H](Cc1ccccc1)C(=O)N[C@@H](CCCNC(=N)N)C(=O)N1CCC[C@@H]1C(=O)N[C@H](Cc1c[nH]c2ccccc12)C(N)=O [Example 9.12, Ac-Nle-Ala-His-D-Phe-Arg-D-Pro-D-Trp-NH2] (Ac-[Nle]AH[dF]R[dP][dW]-NH2) , can you help?
Result: 8.70

---

Target: hMCR-4 (Homo sapiens, UniProt P32245)
Sequence (P32245 whole entry): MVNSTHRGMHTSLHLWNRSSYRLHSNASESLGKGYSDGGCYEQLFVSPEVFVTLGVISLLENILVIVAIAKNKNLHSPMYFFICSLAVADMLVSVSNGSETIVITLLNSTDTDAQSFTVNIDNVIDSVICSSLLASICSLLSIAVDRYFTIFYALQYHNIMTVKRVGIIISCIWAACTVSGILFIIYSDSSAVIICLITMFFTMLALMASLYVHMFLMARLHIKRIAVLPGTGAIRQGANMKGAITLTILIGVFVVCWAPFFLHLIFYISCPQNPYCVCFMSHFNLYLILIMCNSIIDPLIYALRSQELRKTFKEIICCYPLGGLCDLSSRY
Assay: Competitive inhibition binding assay using [I125]-NDP-α-MSH, hMCR-4 membranes
Conditions: HEK-293 membranes, recombinant human MCR-4, [I125]-NDP-α-MSH; read-out: MC-4 Ki (average)
Where a SMILES comes first, the peptide text is derived from it. [ ]: non-standard residue; d: D form. Nle = CCCC[C@H](N)C(=O)O; Dab = NCC[C@H](N)C(=O)O; Sar = CNCC(=O)O
METRIC: Ki (µM)
Quick note: give the figure in µM, leave out the unit.

CCCC[C@H](NC(C)=O)C(=O)N[C@@H](C)C(=O)N[C@@H](CCN)C(=O)N[C@H](Cc1ccccc1)C(=O)N[C@@H](CCCNC(=N)N)C(=O)N[C@@H](C)C(=O)N[C@@H](Cc1c[nH]c2ccccc12)C(N)=O [Example 9.22, Ac-Nle-Ala-Dab-D-Phe-Arg-Ala-Trp-NH2] (Ac-[Nle]A[Dab][dF]RAW-NH2) = 7.85
CCCC[C@H](NC(C)=O)C(=O)N[C@@H](C)C(=O)N[C@@H](Cc1c[nH]cn1)C(=O)N[C@H](Cc1ccccc1)C(=O)N[C@@H](CCCNC(=N)N)C(=O)N1CCC[C@H]1C(=O)N[C@H](Cc1c[nH]c2ccccc12)C(N)=O [Example 9.13, Ac-Nle-Ala-His-D-Phe-Arg-Pro-D-Trp-NH2] (Ac-[Nle]AH[dF]RP[dW]-NH2) = 0.65
CCCC[C@H](NC(C)=O)C(=O)N[C@@H](C)C(=O)N[C@@H](Cc1c[nH]cn1)C(=O)N[C@H](Cc1ccccc1)C(=O)N[C@@H](CCCNC(=N)N)C(=O)N1CCC[C@@H]1C(=O)N[C@@H](Cc1c[nH]c2ccccc12)C(N)=O [Example 9.11, Ac-Nle-Ala-His-D-Phe-Arg-D-Pro-Trp-NH2] (Ac-[Nle]AH[dF]R[dP]W-NH2) = 6.2

Now look at this one.
Q: Looking for the measured Ki of CCCC[C@H](NC(C)=O)C(=O)N[C@@H](C)C(=O)N[C@@H](Cc1c[nH]cn1)C(=O)N[C@H](Cc1ccccc1)C(=O)N[C@@H](CCCNC(=N)N)C(=O)N(C)CC(=O)N[C@@H](Cc1c[nH]c2ccccc12)C(N)=O [Example 9.4, Ac-Nle-Ala-His-D-Phe-Arg-Sar-Trp-NH2] (Ac-[Nle]AH[dF]R[Sar]W-NH2) , can you help?
Result: 0.87

---

Target: hMCR-1a (Homo sapiens, UniProt Q01726)
Assay: Competitive inhibition binding assay using [I125]-NDP-α-MSH, hMCR-1a membranes
Conditions: HEK-293 membranes, recombinant human MCR-1, [I125]-NDP-α-MSH; read-out: MC-1 Ki (average)
Where a SMILES comes first, the peptide text is derived from it. [ ]: non-standard residue; d: D form. Nle = CCCC[C@H](N)C(=O)O
The following molecules are listed with their measured pKi values.
Please express pKi as -log10 of the molar concentration.

CCCC[C@H](NC(C)=O)C(=O)N[C@@H](C)C(=O)N[C@@H](Cc1c[nH]cn1)C(=O)N[C@H](Cc1ccccc1)C(=O)N[C@@H](CCCNC(=N)N)C(=O)N[C@@H](C)C(=O)N[C@@H](Cc1c[nH]c2ccccc12)C(=O)O [Example 9.14, Ac-Nle-Ala-His-D-Phe-Arg-Ala-Trp-OH] (Ac-[Nle]AH[dF]RAW-OH) = 8.22

Q: Looking for the measured pKi of CCCC[C@H](NC(C)=O)C(=O)N[C@@H](C)C(=O)N[C@@H](Cc1c[nH]cn1)C(=O)N[C@H](Cc1ccccc1)C(=O)N[C@@H](CCCNC(=N)N)C(=O)N1CCC[C@@H]1C(=O)N[C@@H](Cc1c[nH]c2ccccc12)C(N)=O [Example 9.11, Ac-Nle-Ala-His-D-Phe-Arg-D-Pro-Trp-NH2] (Ac-[Nle]AH[dF]R[dP]W-NH2) , can you help?
Result: 7.85

---

Biological target: hMCR-1 (Homo sapiens, UniProt Q01726)
Construct: endogenous in cells; host or cells: HBL human melanoma cell line
Sequence (Q01726 whole entry): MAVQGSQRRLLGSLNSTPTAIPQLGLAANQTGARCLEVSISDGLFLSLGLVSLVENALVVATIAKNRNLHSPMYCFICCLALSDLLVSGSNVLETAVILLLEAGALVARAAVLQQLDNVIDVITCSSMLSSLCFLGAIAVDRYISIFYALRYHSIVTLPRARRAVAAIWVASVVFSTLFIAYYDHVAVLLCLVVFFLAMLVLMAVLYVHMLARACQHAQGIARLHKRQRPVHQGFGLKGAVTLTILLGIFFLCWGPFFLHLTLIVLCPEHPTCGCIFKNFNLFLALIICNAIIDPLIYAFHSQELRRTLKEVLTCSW
Assay: Assay for agonist activity: cAMP accumulation in HBL human melanoma cells
Format: cell-based
Conditions: compared to reference agonist NDP-α-MSH, read-out: MC-1 Emax (average; cAMP HBL)
Where a SMILES comes first, the peptide text is derived from it. [ ]: non-standard residue; d: D form. Nle = CCCC[C@H](N)C(=O)O; Orn = NCCC[C@H](N)C(=O)O; Sar = CNCC(=O)O
METRIC: Emax (%)
Quick note: give the figure in %, leave out the unit.

Answered cases to consult:
CCCC[C@H](NC(C)=O)C(=O)N[C@@H](C)C(=O)N[C@@H](Cc1c[nH]cn1)C(=O)N[C@H](Cc1ccccc1)C(=O)N[C@@H](CCCNC(=N)N)C(=O)N[C@@H](C)C(=O)N[C@@H](Cc1c[nH]c2ccccc12)C(=O)O [Example 9.14, Ac-Nle-Ala-His-D-Phe-Arg-Ala-Trp-OH] (Ac-[Nle]AH[dF]RAW-OH) = 73
CCCC[C@H](NC(C)=O)C(=O)N[C@@H](C)C(=O)N[C@@H](Cc1c[nH]cn1)C(=O)N[C@H](Cc1ccccc1)C(=O)N[C@@H](CCCNC(=N)N)C(=O)N(C)CC(=O)N[C@@H](Cc1c[nH]c2ccccc12)C(N)=O [Example 9.4, Ac-Nle-Ala-His-D-Phe-Arg-Sar-Trp-NH2] (Ac-[Nle]AH[dF]R[Sar]W-NH2) = 77
CCCC[C@H](NC(C)=O)C(=O)N[C@@H](C)C(=O)N[C@@H](Cc1c[nH]cn1)C(=O)N[C@H](Cc1ccccc1)C(=O)N[C@@H](CCCNC(=N)N)C(=O)N1CCC[C@@H]1C(=O)N[C@H](Cc1c[nH]c2ccccc12)C(N)=O [Example 9.12, Ac-Nle-Ala-His-D-Phe-Arg-D-Pro-D-Trp-NH2] (Ac-[Nle]AH[dF]R[dP][dW]-NH2) = 72

Q: Looking for the measured Emax of CCCC[C@H](NC(C)=O)C(=O)N[C@@H](C)C(=O)N[C@@H](Cc1c[nH]cn1)C(=O)N[C@H](Cc1ccccc1)C(=O)N[C@@H](CCCNC(=N)N)C(=O)N1CCC[C@@H]1C(=O)N[C@@H](Cc1c[nH]c2ccccc12)C(N)=O [Example 9.11, Ac-Nle-Ala-His-D-Phe-Arg-D-Pro-Trp-NH2] (Ac-[Nle]AH[dF]R[dP]W-NH2) , can you help?
Result: 70

Q: # repeat for CCCC[C@H](NC(C)=O)C(=O)N[C@@H](C)C(=O)N[C@@H](Cc1c[nH]cn1)C(=O)N[C@H](Cc1ccccc1)C(=O)N[C@@H](CCCNC(=N)N)C(=O)NCC(=O)N[C@@H](Cc1c[nH]c2ccccc12)C(N)=O [Example 9.5, Ac-Nle-Ala-His-D-Phe-Arg-Gly-Trp-NH2] (Ac-[Nle]AH[dF]RGW-NH2)
Result: 90

Q: # repeat for CCCC[C@H](NC(C)=O)C(=O)N[C@@H](C)C(=O)N[C@@H](CCCN)C(=O)N[C@H](Cc1ccccc1)C(=O)N[C@@H](CCCNC(=N)N)C(=O)N[C@@H](C)C(=O)N[C@@H](Cc1c[nH]c2ccccc12)C(N)=O [Example 9.21, Ac-Nle-Ala-Orn-D-Phe-Arg-Ala-Trp-NH2] (Ac-[Nle]A[Orn][dF]RAW-NH2)
Result: 107
